biological target: UniProtKB O14920; test: IKKβ kinase inhibition; type: biochemical; settings: table of derivatives; read-out: IKKβ (IC50)
Sequence (O14920 whole entry): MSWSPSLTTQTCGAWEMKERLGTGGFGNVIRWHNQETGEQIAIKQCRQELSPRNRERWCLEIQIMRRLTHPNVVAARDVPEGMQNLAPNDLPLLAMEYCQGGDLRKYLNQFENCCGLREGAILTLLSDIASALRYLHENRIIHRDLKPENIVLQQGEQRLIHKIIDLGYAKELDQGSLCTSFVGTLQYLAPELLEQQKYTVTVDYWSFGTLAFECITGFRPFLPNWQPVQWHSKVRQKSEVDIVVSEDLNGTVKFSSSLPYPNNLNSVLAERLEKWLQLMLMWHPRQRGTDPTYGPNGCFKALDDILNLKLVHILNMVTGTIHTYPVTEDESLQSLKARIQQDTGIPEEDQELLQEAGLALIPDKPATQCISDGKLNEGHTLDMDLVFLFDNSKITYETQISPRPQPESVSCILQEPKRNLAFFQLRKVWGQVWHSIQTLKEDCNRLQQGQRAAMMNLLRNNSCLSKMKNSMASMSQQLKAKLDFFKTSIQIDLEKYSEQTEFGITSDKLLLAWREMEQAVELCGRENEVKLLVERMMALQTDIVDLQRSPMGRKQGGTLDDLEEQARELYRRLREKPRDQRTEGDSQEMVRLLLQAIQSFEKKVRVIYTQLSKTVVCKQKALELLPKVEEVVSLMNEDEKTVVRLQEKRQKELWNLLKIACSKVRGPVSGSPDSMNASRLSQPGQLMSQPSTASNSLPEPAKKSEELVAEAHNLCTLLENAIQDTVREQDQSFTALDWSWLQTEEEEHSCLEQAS
pIC50: −log10 of the molar value.
propertyLabel: pIC50

>>> endpointvalue("C=C1C(=O)O[C@@H]2[C@@H]3[C@@H](C[C@@]45OC(C)(C)O[C@@]34CC[C@]53C(=O)C[C@H]4C(=C)CC[C@H]5C(=C)C(=O)O[C@@H]5[C@H]43)C(=C)CC[C@@H]12 [Compound 2]")
7.25
>>> endpointvalue("C=C1CC[C@H]2C(CN(C)C)C(=O)O[C@@H]2[C@@H]2[C@H]1C[C@@]13OC(C)(C)O[C@@]21CC[C@]31C(=O)C[C@H]2C(=C)CC[C@H]3C(CN(C)C)C(=O)O[C@@H]3[C@H]21 (stereo partly drawn) [Compound 3]")
7.38
>>> endpointvalue("C=C1C(=O)O[C@@H]2[C@@H]3[C@@H](C[C@@]4(O)[C@]3(O)CC[C@]43C(=O)C[C@H]4C(=C)CC[C@H]5C(=C)C(=O)O[C@@H]5[C@H]43)C(=C)CC[C@@H]12 [Compound 1]")
7.12
